# target-or-system: Lysine-specific demethylase 4A (Homo sapiens) (UniProt O75164)
# Sequence (O75164 whole entry, looked up, the tested form may be a part): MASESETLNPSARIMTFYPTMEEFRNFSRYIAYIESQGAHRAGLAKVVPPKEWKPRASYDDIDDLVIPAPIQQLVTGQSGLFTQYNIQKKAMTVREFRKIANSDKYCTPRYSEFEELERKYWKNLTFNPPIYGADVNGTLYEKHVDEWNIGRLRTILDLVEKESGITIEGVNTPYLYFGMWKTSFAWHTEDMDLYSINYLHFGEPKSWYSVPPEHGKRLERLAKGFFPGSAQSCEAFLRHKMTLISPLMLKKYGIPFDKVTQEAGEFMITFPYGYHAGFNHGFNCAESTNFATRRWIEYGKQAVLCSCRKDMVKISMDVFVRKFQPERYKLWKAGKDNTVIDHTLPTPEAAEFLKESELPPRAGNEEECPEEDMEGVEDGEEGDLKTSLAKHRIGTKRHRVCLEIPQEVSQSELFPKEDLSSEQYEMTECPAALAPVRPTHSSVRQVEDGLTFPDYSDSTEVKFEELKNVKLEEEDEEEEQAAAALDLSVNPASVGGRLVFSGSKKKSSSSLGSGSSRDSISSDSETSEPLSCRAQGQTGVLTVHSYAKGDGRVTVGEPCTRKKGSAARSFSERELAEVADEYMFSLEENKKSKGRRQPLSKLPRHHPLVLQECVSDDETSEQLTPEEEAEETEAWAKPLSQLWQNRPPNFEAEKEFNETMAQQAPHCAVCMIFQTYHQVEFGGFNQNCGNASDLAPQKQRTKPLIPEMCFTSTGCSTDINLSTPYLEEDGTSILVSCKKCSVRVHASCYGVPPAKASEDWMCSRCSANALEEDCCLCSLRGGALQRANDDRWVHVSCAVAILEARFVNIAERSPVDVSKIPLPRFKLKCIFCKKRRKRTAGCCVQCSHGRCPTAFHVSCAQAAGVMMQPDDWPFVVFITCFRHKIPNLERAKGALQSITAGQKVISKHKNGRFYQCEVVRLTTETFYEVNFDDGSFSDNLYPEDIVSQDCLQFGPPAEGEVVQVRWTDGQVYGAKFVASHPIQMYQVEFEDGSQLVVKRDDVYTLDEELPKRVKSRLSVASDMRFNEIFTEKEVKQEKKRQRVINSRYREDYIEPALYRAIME
# run-description: qHTS Assay for Inhibitors of JMJD2A-Tudor Domain; further: nearly all actives have a fitted effect of over 50% in size
# condition-details: AlphaScreen JMJD2A-Tudor / H3K4me3 peptide binding; series mostly up to 114 µM
Out of some 390,000 compounds screened, about 17,000 (4.4%) were called active. Not shown: some 8% with an inconclusive outcome. The call rests on the fitted dose curve; in most records, active means well fitted inhibition curve with a large enough effect; inconclusive means small, poorly fitted or top-dose-only effect; inactive means no such curve, though single readings can be large or run the other way. This is one part of a sample in which actives are shown more often than they occur.
Outcomes you can answer with include only these: active, inactive

Take a look at these entries with their results.
input-smiles	assigned-class
O=C(CC(=O)N/N=C\c1ccc(F)cc1)NCCc1ccccc1	inactive
O=C(NC(=O)c1ccccc1N1CCCCC1)Nc1ccc(Br)cc1	inactive
Cc1cc(=O)oc2cc(OCC(=O)N3CCN(c4ccc(F)cc4)CC3)c(Cl)cc12	inactive

Input line: Please indicate how the test categorized O=C(Cc1ccccc1)NNC(=O)C1CCN(c2ncccn2)CC1 .
Output line: inactive

Input line: Please indicate how the test categorized O=C(Cn1cc(C(F)(F)F)ccc1=O)N/N=C/c1ccc(Cl)cc1Cl .
Output line: inactive

Input line: Please indicate how the test categorized Oc1c(CN2CCN(c3ccc(F)cc3)CC2)cc(Cl)c2cccnc12 .
Output line: active

Input line: Please indicate how the test categorized Oc1c(CN2CCCC2)cc(COCc2ccccc2)c2cccnc12 .
Output line: active

Input line: Please indicate how the test categorized COc1ccc(CNC(=O)CSc2n[nH]c(-c3ccc(F)cc3)n2)cc1 .
Output line: inactive

Input line: Please indicate how the test categorized Cc1ccccc1C(=O)N1CCN(c2ccc(NC(=O)c3cccs3)cc2)CC1 .
Output line: inactive

Input line: Please indicate how the test categorized CC(=O)Nc1ccc(S(=O)(=O)Nc2ccc(N3CCCCC3)cc2)cc1 .
Output line: active

Input line: Please indicate how the test categorized COc1ccc(Cl)cc1NC(=O)Cn1c(=O)c2ccccc2n2nncc12 .
Output line: inactive

----------
# target-or-system: Lysine-specific demethylase 4A (Homo sapiens) (UniProt O75164)
# run-description: qHTS Assay for Inhibitors of JMJD2A-Tudor Domain; further: nearly all actives have a fitted effect of over 50% in size
# condition-details: AlphaScreen JMJD2A-Tudor / H3K4me3 peptide binding; series mostly up to 114 µM
Hit rate of the full screen: of about 390,000 compounds, about 17,000 (4.4%) were called active. Another 8% or so got no clear call; they are omitted. Calls come from the whole dose curve; as a rule, active = well fitted inhibition curve with a large enough effect; inconclusive = small, poorly fitted or top-dose-only effect; inactive = no such curve, though single readings can be large or run the other way. This is one part of a sample in which actives are shown more often than they occur.
Outcomes you can answer with include only these: active, inactive

Take a look at these entries with their results.
molecule	assigned-class
Cc1ccc(-c2noc(-c3nnn(-c4cccc(C(F)(F)F)c4)c3N)n2)cc1	inactive
O=C(Cc1nn[nH]n1)NCCC1=CCCCC1	active
CCc1c(C)sc(NC(=O)C2c3ccccc3Oc3ccccc32)c1C(=O)OC(C)C	inactive
COC(=O)c1c(NC(=O)CCCOc2ccccc2)sc2c1CCC(C)C2 (stereo unspecified)	inactive
Cn1c(CC(=O)Nc2ccccc2)nnc1SCC(=O)c1ccccc1	inactive
Cc1nnc(OCC(=O)NCCC2=CCCCC2)c2ccccc12	inactive
Cc1nn(-c2ccccc2)c(Cl)c1/C=N/NC(=O)c1nn(C)cc1[N+](=O)[O-]	inactive
Cc1ccc(CNC(=O)CCc2c(C)nc3c(c(C)nn3-c3ccccc3)c2C)cc1	inactive
COc1ccccc1NC(=O)c1ccc2nc(N3C(=O)CCC3=O)sc2c1	inactive
O=[N+]([O-])c1ccc(S(=O)(=O)N2CCN(c3nc(-c4ccccc4)nc4ccccc34)CC2)cc1	inactive

Input line: Please indicate how the test categorized CCCn1c2ccccc2c2cnn(CC(=O)N3CCCC(C(=O)OCC)C3)c(=O)c21 (stereo unspecified) .
Output line: active

Input line: Please indicate how the test categorized Cn1c(CC2Sc3ccccc3NC2=O)nnc1SCC(=O)c1ccc(Cl)cc1 (stereo unspecified) .
Output line: active

Input line: Please indicate how the test categorized O=C(CC1Sc2ccccc2NC1=O)NNc1ccc(Cl)c(Cl)c1 (stereo unspecified) .
Output line: inactive

Input line: Please indicate how the test categorized Cc1ccc(Cn2c(CNC(=O)Cc3cccc(C)c3)nc3cccnc32)cc1 .
Output line: inactive

Input line: Please indicate how the test categorized CN(Cc1cccc2ncccc12)C(=O)CC1C(=O)NCCN1Cc1ccc(F)cc1 (stereo unspecified) .
Output line: inactive
